experimentDescription: Intrinsic clearance in human microsomes assessed per mg of protein
Format: ADME, Microsome
outcomeMeasure: microsomal CLint (µL/min/mg)
Express it in µL/min/mg; write the number only.

Can you share its microsomal CLint? I mean this compound: CC(C)S(=O)(=O)N[C@H]1Cc2ccc(Cn3cc(CO)c(C(F)(F)F)n3)cc2C1 23

###

experimentDescription: Volume of distribution at steady state in Wistar rat at 2 mg/kg, iv and 10 mg/kg, po
Format: ADME, organism-based
details: in vivo, read-out: Vdss
outcomeMeasure: Vd

Can you share its Vd? I mean this compound: O=S(=O)(N[C@@H]1Cc2ccc(Cn3cc(CO)c(C(F)(F)F)n3)cc2C1)C(F)(F)F 1 L/kg
